Cited source: PubChem BioAssay (Tox21)

# STUDY TARGET: Nuclear receptor subfamily 1 group I member 2 (Homo sapiens) (UniProt O75469)
# MEASUREMENT DESCRIPTION: CYP3A4 induction through human pregnane X receptor (PXR) by small molecules, qHTS assay (AID 1346984); also: nearly all actives have a fitted effect of over 40% in size
# RECORDED CONDITIONS: DPX-2 HepG2 PXR, CYP3A4-luciferin luminescence, 24 h; series mostly up to 46.1 µM
Records with an inconclusive call do not appear. Calls of active or inactive are those of the source. Calls follow the shape of the dose curve; as a rule, active = well fitted activation curve with a large enough effect in the repeat runs; inconclusive = weak or mixed curves; inactive = no such curve, though single readings can be large or run the other way.
Can you answer with just one of these options? y for active, n for inactive

Past entries and their recorded results:
                              smiles_string                              study_target  assigned_category
0                       CCN1CCc2nc(N)oc2CC1  Nuclear receptor subfamily 1 group I member 2 (Homo sapiens) (UniProt O75469)                  n
1  C[C@H](CCC(=O)O)[C@H]1CC[C@H]2[C@@H]3C(=O)C[C@@H]4CC(=O)CC[C@]4(C)[C@H]3CC(=O)[C@]12C  Nuclear receptor subfamily 1 group I member 2 (Homo sapiens) (UniProt O75469)                  n
2                   Cc1ccsc1/C=C/C1=NCCCN1C  Nuclear receptor subfamily 1 group I member 2 (Homo sapiens) (UniProt O75469)                  n
3  CC1(C)S[C@@H]2[C@H](N=CN3CCCCCC3)C(=O)N2[C@H]1C(=O)O  Nuclear receptor subfamily 1 group I member 2 (Homo sapiens) (UniProt O75469)                  n
4              O=C(NCCN1CCOCC1)c1ccc(Cl)cc1  Nuclear receptor subfamily 1 group I member 2 (Homo sapiens) (UniProt O75469)                  n
5  COc1ccc2c(c1OC)C(=O)O[C@@H]2[C@H]1c2c(cc3c(c2OC)OCO3)CCN1C  Nuclear receptor subfamily 1 group I member 2 (Homo sapiens) (UniProt O75469)                  n

Kindly provide the recorded test outcome for the following compound: COc1nccnc1NS(=O)(=O)c1ccc(N)cc1
n

Next entry: Cc1cc2cc3c(C)cc(=O)oc3c(C)c2o1
n

Next entry: O=C(CCN1CCN(CCO)CC1)N1c2ccccc2Sc2ccc(C(F)(F)F)cc21
y

Next entry: CC(=C(CCOC(=O)C(C)C)SSC(CCOC(=O)C(C)C)=C(C)N(C=O)Cc1cnc(C)nc1N)N(C=O)Cc1cnc(C)nc1N
n

Next entry: NCCS
n

Next entry: O=C(Nc1ccc(Cl)c(Cl)c1)C1CC1
n

Next entry: C[C@@H](O)[C@H]1C(=O)N2C(C(=O)O)=C(SCCN=CN)C[C@H]12
n

Next entry: CN(CCOc1ccc(NS(C)(=O)=O)cc1)CCc1ccc(NS(C)(=O)=O)cc1
n

Next entry: O=C(NCCc1c[nH]c2ccccc12)c1cccnc1
n

Next entry: O=C(O)Cc1cn(-c2ccccc2)nc1-c1ccc(Cl)cc1
n

Next entry: CC(=O)Nc1ccc(S(=O)(=O)Nc2ccc([N+](=O)[O-])cc2)cc1
n

Next entry: CO[C@@H]1[C@@H](OC(N)=O)[C@@H](O)[C@H](Oc2ccc3c(O)c(NC(=O)c4ccc(O)c(CC=C(C)C)c4)c(=O)oc3c2C)OC1(C)C
n

Next entry: COc1cc(NS(=O)(=O)c2ccc(N)cc2)nc(OC)n1
n

###

# STUDY TARGET: Cytochrome P450 2C19 (Homo sapiens)
# MEASUREMENT DESCRIPTION: Cytochrome P450 Family 2 Subfamily C Member 19 (CYP2C19) small molecule antagonists: luciferase reporter qHTS assay (AID 1671197); also: nearly all actives have a fitted effect of over 65% in size
# RECORDED CONDITIONS: P450-Glo CYP2C19 enzyme, luciferin luminescence, 1 h; series mostly up to 115 µM
Records with an inconclusive call do not appear. Activity calls are given as the source filed them. Calls come from the whole dose curve; as a rule, active = well fitted inhibition curve with a large enough effect in the repeat runs; inconclusive = weak or mixed curves; inactive = no such curve, though single readings can be large or run the other way.
Can you answer with just one of these options? active, inactive

Past entries and their recorded results:
>>> print(df.to_string())
                  smiles_string                         study_target  assigned_category
0            O=C(O)CCSSCCC(=O)O  Cytochrome P450 2C19 (Homo sapiens)           inactive
1  C[C@H](N)[C@H](O)c1cccc(O)c1  Cytochrome P450 2C19 (Homo sapiens)           inactive
2         COC(=O)CCCCCCCC(=O)OC  Cytochrome P450 2C19 (Homo sapiens)           inactive

Kindly provide the recorded test outcome for the following compound: CCO[Si](CCCS)(OCC)OCC
active

Next entry: O=Cc1ccc(Cl)c(Cl)c1
inactive

Next entry: Nc1nnc(-c2cccc(Cl)c2Cl)c(N)n1
inactive

Next entry: Cc1ccc(S(=O)(=O)O)c(C)c1
inactive

Next entry: COCCOCCOCCOCCO
inactive

Next entry: COC(=O)c1ccccc1C(=O)c1ccc(OCCN2CCCCC2)cc1
inactive

Next entry: Nc1ccc(S(=O)(=O)Nc2ccc(Cl)nn2)cc1
inactive

Next entry: COc1ccc(-c2cc(=O)c3c(O)cc(O[C@@H]4O[C@H](CO[C@@H]5O[C@@H](C)[C@H](O)[C@@H](O)[C@H]5O)[C@@H](O)[C@H](O)[C@H]4O)cc3o2)cc1O
inactive

Next entry: CCc1ccc(C=O)cc1
inactive

Next entry: O=C(OCC(COC(=O)c1cccnc1)(COC(=O)c1cccnc1)COC(=O)c1cccnc1)c1cccnc1
inactive

###

# STUDY TARGET: Nuclear receptor ROR-gamma (Homo sapiens)
# MEASUREMENT DESCRIPTION: qHTS assay to identify small molecule antagonists of the retinoid-related orphan receptor gamma (ROR-gamma) signaling pathway (AID 1159521;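 also: CHO cells with doxycycline inducible ROR-gamma driving an RORE luciferase reporter; top concentration of the series differs between compounds; nearly all actives have a fitted effect of over 50% in size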)
# RECORDED CONDITIONS: Tet-on RORgamma CHO cells, RORE-luciferase, 16 h; series mostly up to 92.4 µM
# Experimental: U.S. Tox21 Program National Center for Advancing Translational Sciences [NCATS] NIH Chemical Genomics Center [NCGC] U.S. Environmental Protection Agency [EPA] National Institutes of Environmental Health Sciences [NIEHS] National Toxicology Program [NTP] U.S. Food and Drug Administration [FDA] […] Reporter gene activity was induced using Doxycycline Hyclate and measured after 16 hr incubation. […]
Records with an inconclusive call do not appear. Activity calls are given as the source filed them. The call rests on the fitted dose curve; in most records, active means well fitted inhibition curve with a large enough effect in the repeat runs; inconclusive means weak or mixed curves, or effect the other way; inactive means no such curve, though single readings can be large or run the other way.
REPORTED PROPERTY: activity change, negative = inhibition

In [3]: df
Out[3]:
                                   compound                       reported_property    result
0                       CCCCCCCCOS(=O)(=O)O  activity change, negative = inhibition  inactive
1  CC(C)NCC(O)COc1ccc(COCCOC(C)C)cc1 (centres undefined)  activity change, negative = inhibition  inactive
2                     OCCN(CCO)c1cccc(Cl)c1  activity change, negative = inhibition  inactive
3                           C=CCCCCCCCCCCCC  activity change, negative = inhibition  inactive
4  C#CC(C)N(C)C(=O)Nc1ccc(Cl)cc1 (centres undefined)  activity change, negative = inhibition  inactive

Quick check: activity change, negative = inhibition of O=C(O)c1ccc(Cl)cc1Cl ?
inactive

Next entry: O=C(O)c1cc(Br)c(O)c(Br)c1
inactive

Next entry: CC(=O)c1ccc2c(c1)Cc1ccccc1-2
inactive

Next entry: C[Si](C)(C)C
inactive

Next entry: NNc1nnc(NN)c2ccccc12
inactive

Next entry: CNC(=O)[C@H]1O[C@@H](n2cnc3c(NCc4cc(Cl)ccc4OCc4cc(C)no4)ncnc32)[C@H](O)[C@@H]1N
inactive

Next entry: CC(C)=O
inactive

Next entry: Cc1cccc(OCC(O)CNC(C)(C)C)c1C (centres undefined)
inactive

Next entry: CCCCN
inactive

###

# STUDY TARGET: Cytochrome P450 1A2 (Homo sapiens)
# MEASUREMENT DESCRIPTION: Cytochrome P450 Family 1 Subfamily A Member 2 (CYP1A2) small molecule antagonists: luciferase reporter qHTS assay (AID 1671199); also: nearly all actives have a fitted effect of over 50% in size
# RECORDED CONDITIONS: P450-Glo CYP1A2 enzyme, luciferin luminescence, 1 h; series mostly up to 53 µM
Results filed as inconclusive are left out. Active and inactive are the calls of the source. Calls come from the whole dose curve; as a rule, active = well fitted inhibition curve with a large enough effect in the repeat runs; inconclusive = weak or mixed curves; inactive = no such curve, though single readings can be large or run the other way.
Can you answer with just one of these options? true = active, false = inactive

Past entries and their recorded results:
>>> print(df.to_string())
                                   compound  assigned_category
0         CC(CO)c1ccccc1 (stereo not drawn)              false
1  N[C@@H](CCC(=O)Nc1ccc([N+](=O)[O-])cc1)C(=O)O              false
2  Cc1nc2n(c(=O)c1CCN1CCC(c3noc4cc(F)ccc34)CC1)CCC[C@H]2O              false
3  CC(=O)Nc1ccc(S(=O)(=O)Nc2ccc([N+](=O)[O-])cc2)cc1              false
4              c1ccc2c(c1)ccc1c3ccccc3ccc21               true

Kindly provide the recorded test outcome for the following compound: CC(=O)CCCCn1c(=O)c2c(ncn2C)n(C)c1=O
false

Next entry: NCCS
false

Next entry: CCN(C)C(=O)Oc1cccc([C@H](C)N(C)C)c1
false
